# experiment-description: Pharmacokinetic study, oral dosing at different dose levels
# Format: in vivo, wild type B6 mice
# reported-conditions: B6, mouse, plasma, po, 75 mg/kg, oral gavage, 75 mg/kg; read-out: AUC0-24
observation-type: AUC(0-t) (µg·h/mL)

> print(dat)
                               query.smiles  test.value
1  CCOc1ccc(-c2ccc(-c3cc(C(=O)O)c4cc(F)ccc4n3)cc2)cc1         786

----------
# experiment-description: Pharmacokinetic study, oral dosing at different dose levels
# Type: in vivo, wild type B6 mice
# reported-conditions: B6, mouse, plasma, po, 25 mg/kg, oral gavage, 25 mg/kg; read-out: AUC0-24
observation-type: AUC(0-t) (µg·h/mL)

> print(dat)
                                   compound  observation.type  test.value
1  CCOc1ccc(-c2ccc(-c3cc(C(=O)O)c4cc(F)ccc4n3)cc2)cc1 [Cpd3]          AUC(0-t)         171
